Values compiled from patent US20240343747A1.

assay: Pharmacokinetic evaluation in mice; type: in vivo; details: male, mouse, plasma, iv; mice, i.v. 2 mg/kg
Would you kindly list half-life for each of these molecules?
Answers are plain numbers, in h.

[2H]C([2H])([2H])n1nc(-c2cccc(Nc3cc(NC(=O)C4CC4)ncc3C(=O)CC)c2OC)cc1P(C)(C)=O :: 1.4
CCC(=O)c1cnc(NC(=O)C2CC2)cc1Nc1cccc(-c2cc(P(C)(C)=O)n(C)n2)c1OC :: 1
CCC(=O)c1cnc(NC(=O)C2CC2)cc1Nc1cccc(-c2cc(P(=O)(C3CC3)C3CC3)n(C)n2)c1OC :: 0.63

Please fill in: half-life reported for `[2H]C([2H])([2H])NC(=O)c1nnc(NC(=O)C2CC2)cc1Nc1cccc(-c2cc(P(=O)(C3CC3)C3CC3)n(C)n2)c1OC` = 1.1

====

molecular target: JAK2 JH1 (Homo sapiens (Human)); experiment: Competitive binding assay (kinase-tagged phage, qPCR), JAK2 JH1
Sequence (O60674 849-1124): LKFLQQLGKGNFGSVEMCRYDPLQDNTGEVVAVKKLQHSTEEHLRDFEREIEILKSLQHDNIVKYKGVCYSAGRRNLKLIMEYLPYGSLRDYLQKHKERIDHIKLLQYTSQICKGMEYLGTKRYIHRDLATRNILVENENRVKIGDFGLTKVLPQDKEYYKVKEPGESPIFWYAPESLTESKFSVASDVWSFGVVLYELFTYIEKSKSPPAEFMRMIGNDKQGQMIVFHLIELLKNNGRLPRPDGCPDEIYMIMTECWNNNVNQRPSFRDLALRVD
quantity-name: pKd
Give bare numbers, as −log10 of the molar value.

Please fill in: pKd reported for `CCC(=O)c1cnc(NC(=O)C2CC2)cc1Nc1nccc(-c2cc(P(=O)(C3CC3)C3CC3)n(C)n2)c1OC` = 4.96

====

target: TYK2 (Mus musculus (Mouse), UniProt Q9R117); test: Luciferase assay in L929 ISRE cells stimulated with IFN-α; assay type: cell-based; conditions: 100 nM, IFN-α 100 ng/mL, read-out: Inhibitory activity % (100 nM)
Sequence (Q9R117 whole entry): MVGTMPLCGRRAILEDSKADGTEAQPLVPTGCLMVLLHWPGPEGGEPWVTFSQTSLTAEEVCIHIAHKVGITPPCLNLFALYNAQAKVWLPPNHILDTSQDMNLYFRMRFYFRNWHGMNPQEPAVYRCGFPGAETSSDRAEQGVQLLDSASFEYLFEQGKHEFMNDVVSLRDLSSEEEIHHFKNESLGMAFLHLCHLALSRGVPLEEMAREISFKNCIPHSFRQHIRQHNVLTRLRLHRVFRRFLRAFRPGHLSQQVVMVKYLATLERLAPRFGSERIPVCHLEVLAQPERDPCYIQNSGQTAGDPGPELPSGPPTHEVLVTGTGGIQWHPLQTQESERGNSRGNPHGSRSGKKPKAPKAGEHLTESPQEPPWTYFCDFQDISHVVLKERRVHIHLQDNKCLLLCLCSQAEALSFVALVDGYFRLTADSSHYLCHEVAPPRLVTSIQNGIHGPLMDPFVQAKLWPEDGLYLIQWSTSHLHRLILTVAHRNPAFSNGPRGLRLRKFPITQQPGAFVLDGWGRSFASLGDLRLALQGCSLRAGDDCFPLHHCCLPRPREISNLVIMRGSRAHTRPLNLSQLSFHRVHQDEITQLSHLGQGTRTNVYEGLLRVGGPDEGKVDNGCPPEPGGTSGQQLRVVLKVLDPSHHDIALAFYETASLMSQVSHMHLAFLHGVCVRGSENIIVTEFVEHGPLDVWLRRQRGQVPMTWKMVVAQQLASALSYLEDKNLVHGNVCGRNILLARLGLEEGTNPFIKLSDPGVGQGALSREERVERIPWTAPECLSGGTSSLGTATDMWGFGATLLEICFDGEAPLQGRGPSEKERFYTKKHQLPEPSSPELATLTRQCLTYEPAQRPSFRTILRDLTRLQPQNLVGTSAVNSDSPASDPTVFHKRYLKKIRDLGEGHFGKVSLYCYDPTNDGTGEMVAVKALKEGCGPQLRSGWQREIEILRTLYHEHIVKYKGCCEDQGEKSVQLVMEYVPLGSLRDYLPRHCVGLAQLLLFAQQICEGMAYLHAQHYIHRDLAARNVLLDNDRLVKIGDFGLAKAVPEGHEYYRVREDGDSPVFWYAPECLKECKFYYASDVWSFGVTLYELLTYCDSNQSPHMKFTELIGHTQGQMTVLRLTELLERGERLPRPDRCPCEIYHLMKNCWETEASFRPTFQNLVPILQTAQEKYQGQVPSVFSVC
Would you kindly list inhibition at 0.1 µM for each of these compounds?
One number for each entry, in %.

Worked examples, 6 compounds total:
CCC(=O)c1cnc(NC(=O)C2CC2)cc1Nc1cccc(-c2cc(P(C)(C)=O)n(C)n2)c1C#N [Compound B20] :: 8
CCC(=O)c1cnc(NC(=O)C2CC2)cc1Nc1cc(F)cc(-c2ncc(P(C)(C)=O)cn2)c1OC [Compound B23] :: 8
CCC(=O)c1cnc(NC(=O)C2CC2)cc1Nc1cccc(-c2nc(P(C)(C)=O)ns2)c1OC [Compound B1] :: 0
CCC(=O)c1cnc(NC(=O)C2CC2)cc1Nc1cccc(-c2ccc(P(C)(C)=O)nc2)c1OC [Compound B21] :: 6
CCC(=O)c1cnc(NC(=O)C2CC2)cc1Nc1cccc(-c2cc(P(C)(C)=O)n(C3CC3)n2)c1OC [Compound B16] :: 38
CNC(=O)c1nnc(NC(=O)C2CC2)cc1Nc1cccc(-c2cc(P(C)(C)=O)n(C)n2)c1OC [Compound B39] :: 34

Please fill in: inhibition at 0.1 µM reported for CCC(=O)c1cnc(NC(=O)C2CC2)cc1Nc1cccc(-c2cc(P(C)(C)=O)n(C)n2)c1OC [Compound B2] = 58

====

assay: Pharmacokinetic evaluation in mice; assay type: in vivo; settings: mice, p.o. 10 mg/kg
Would you kindly list F for each of these molecules?
Numbers only, in %.

CCC(=O)c1cnc(NC(=O)C2CC2)cc1Nc1cccc(-c2cc(P(=O)(C3CC3)C3CC3)n(C)n2)c1OC :: 78
[2H]C([2H])([2H])n1nc(-c2cccc(Nc3cc(NC(=O)C4CC4)ncc3C(=O)CC)c2OC)cc1P(C)(C)=O :: 94
CCC(=O)c1cnc(NC(=O)C2CC2)cc1Nc1cccc(-c2cc(P(C)(C)=O)n(C)n2)c1OC :: 43

Read the next record carefully.
Please fill in: F reported for `[2H]C([2H])([2H])NC(=O)c1nnc(NC(=O)C2CC2)cc1Nc1cccc(-c2cc(P(=O)(C3CC3)C3CC3)n(C)n2)c1OC` = 89
